Assay: AUC (0 to infinity) in J:Nu mouse plasma at 30 mg/kg, po qd for 7 days followed by 90 mg/kg, po qd for 5 days from day 8 to 13
Format: ADME, organism-based
Parameters: dose 30 mg/kg, route oral, time infinity
endpoint label: AUC(0-inf) (µg·h/mL)
Could you give me the number in µg·h/mL? Just the number is fine.

Entry Cc1nn(-c2nc(-c3ccc(Cl)c(Cl)c3)c(SC(C)C)s2)c(C(=O)O)c1-c1cc(Cl)cc(Cl)c1 has what AUC(0-inf)? 1490
